Would you mind telling me the reported inhibition at 20 µM of each entry?
Tested on: T. cruzi amastigotes and trypomastigotes
Test: T. cruzi infection assay in L929 cells (beta-galactosidase Tulahuen strain)
Assay type: cell-based, Trypanosoma cruzi
Conditions: Trypanosoma cruzi; 20 μM, infected L929 cells, 96 h; toxic = L929 death; read-out: percentage of T. cruzi growth inhibition
Give bare numbers, in %.

// worked examples, inhibition at 20 µM included
- compound: "O=C(CCCCSc1nc(-c2ccc(-c3ccccc3)cc2)cc(=O)[nH]1)NO"
  units-symbol: "%"
  inhibition at 20 µM: 0
- compound: "O=C(/C=C/c1ccc(CSc2nc(Cl)cc(-c3ccccc3)n2)cc1)NO"
  units-symbol: "%"
  inhibition at 20 µM: 3
- compound: "Cn1c(/C=C/C(=O)NO)ccc1/C=C/C(=O)c1cccc(Cl)c1"
  units-symbol: "%"
  inhibition at 20 µM: 87
- compound: "CC1=C(/C=C/C(C)=C/C=C/C(C)=C/C(=O)Nc2ccccc2N)C(C)(C)CCC1"
  units-symbol: "%"
  inhibition at 20 µM: 78

Enquiry: Read the entry Nc1ccccc1NC(=O)c1ccc(CNC(=O)OCc2cccnc2)cc1 [Compound 9, entinostat, reference compound] and write its reported inhibition at 20 µM.
Return: 0
